# Test system: HEK 293 cells
# assay-protocol: ATP-Glo dose-response, HEK 293 cells
# Type: cell-based, human
# condition-label: Homo sapiens, HEK293; ATP Glo readout, 24 h treatment
pEC50: −log10 of the molar value. Structures can show the parent of a compound that is named as a salt.
recorded-metric: pEC50

> print(dat)
                                   compound  assayed.target  observed.value
1  CC(C)(C)c1ccc(C(O)CCCN2CCC(C(O)(c3ccccc3)c3ccccc3)CC2)cc1 (centres unmarked)   HEK 293 cells            5.10
2  CC(Cc1ccccc1)NCCC(c1ccccc1)c1ccccc1 (centres unmarked) [Prenylamine lactate]   HEK 293 cells            4.60
3  CCCCCCCCNC(C)C(O)c1ccc(SC(C)C)cc1 (centres unmarked)   HEK 293 cells            5.00
4  C1CCC(C(CC2CCCCN2)C2CCCCC2)CC1 (centres unmarked) [Perhexilin maleate]   HEK 293 cells            4.92
5  C#C[C@]1(O)CC[C@H]2[C@@H]3CCC4=CCCC[C@@H]4[C@H]3CC[C@@]21C   HEK 293 cells            4.24

Data provenance: paper PMC4536076
